- Target System: ENT1 (Homo sapiens, UniProt Q99808)
- Sequence (Q99808 whole entry): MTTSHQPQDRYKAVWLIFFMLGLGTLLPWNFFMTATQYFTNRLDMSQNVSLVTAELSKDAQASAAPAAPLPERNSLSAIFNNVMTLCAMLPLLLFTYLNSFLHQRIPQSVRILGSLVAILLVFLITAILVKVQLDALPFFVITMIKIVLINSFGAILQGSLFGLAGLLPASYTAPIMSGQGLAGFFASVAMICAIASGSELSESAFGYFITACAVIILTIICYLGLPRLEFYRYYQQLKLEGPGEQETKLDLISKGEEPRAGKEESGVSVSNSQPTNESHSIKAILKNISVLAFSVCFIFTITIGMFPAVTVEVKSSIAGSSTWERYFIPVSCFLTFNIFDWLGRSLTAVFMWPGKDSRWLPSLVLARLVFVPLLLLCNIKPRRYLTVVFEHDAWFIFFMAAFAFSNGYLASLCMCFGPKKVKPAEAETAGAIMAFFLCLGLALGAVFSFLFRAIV
- Experiment Description: Inhibition of [3H]uridine uptake into WT HeLa
- Assay type: cell-based
Measurement Kind: pIC50
A value of pIC50 is the negative decimal logarithm of a concentration given in moles per litre.

Recorded results for 8 molecules are shown here.
{"Molecule": "C[C@@H]1O[C@@H](O[C@H]2[C@H](Oc3cc(O)c4c(c3)O[C@H](c3ccc(O)cc3)CC4=O)O[C@H](CO)[C@@H](O)[C@@H]2O)[C@H](O)[C@H](O)[C@H]1O", "Measurement Kind": "pIC50", "Meas Value": 4.00}
{"Molecule": "O=C(O[C@@H]1Cc2c(O)cc(O)cc2O[C@@H]1c1ccc(O)c(O)c1)c1cc(O)c(O)c(O)c1 [Epicatechin gallate]", "Measurement Kind": "pIC50", "Meas Value": 5.40}
{"Molecule": "COc1ccc(-c2cc(=O)c3c(OC)c(OC)c(OC)cc3o2)cc1OC", "Measurement Kind": "pIC50", "Meas Value": 5.90}
{"Molecule": "CC(=O)N1CCN(c2ccc(OCC3COC(Cn4ccnc4)(c4ccc(Cl)cc4Cl)O3)cc2)CC1 (stereo not drawn)", "Measurement Kind": "pIC50", "Meas Value": 5.14}
{"Molecule": "O=c1c(O)c(-c2ccc(O)c(O)c2)oc2cc(O)cc(O)c12", "Measurement Kind": "pIC50", "Meas Value": 4.69}
{"Molecule": "CC(=O)[C@H]1CC[C@H]2[C@@H]3C[C@H](C)C4=CC(=O)CC[C@]4(C)[C@H]3[C@@H](O)C[C@]12C", "Measurement Kind": "pIC50", "Meas Value": 5.35}
{"Molecule": "CCc1oc2ccccc2c1C(=O)c1cc(Br)c(O)c(Br)c1", "Measurement Kind": "pIC50", "Meas Value": 4.53}
{"Molecule": "CCOC(=O)c1ncn2c1CN(C)C(=O)c1cc(F)ccc1-2", "Measurement Kind": "pIC50", "Meas Value": 3.92}

Now look at this entry.
# get_value(readout='pIC50', item= O=c1c(O)c(-c2cc(O)c(O)c(O)c2)oc2cc(O)cc(O)c12 ) 4.32

====

- Target System: ENT1 (Homo sapiens, UniProt Q99808)
- Experiment Description: Inhibition of [3H]uridine uptake into WT HeLa
- Format: cell-based
- Test Settings: read-out: ENT1 IC50 (μM) ± SD; 5 min uptake of ~10 nM [3H]uridine; WT HeLa cells
Measurement Kind: IC50 (µM)
Output spec: scalar in µM, unitless text.

Hello, I am looking for reported IC50 with ENT1 (Homo sapiens, UniProt Q99808) for Cc1ccc([C@@H]2O[C@H](CO)[C@@H](O)[C@H](O)[C@H]2O)cc1Cc1ccc(-c2ccc(F)cc2)s1 [canagliflozin] . Could you help? 24

====

- Target System: ENT1 (Homo sapiens, UniProt Q99808)
- Experiment Description: Inhibition of [3H]uridine uptake into WT HeLa
- Type: cell-based
- Test Settings: 20 μM; model-predicted compounds from MedChem Express Drug Repurposing Library
Measurement Kind: ENT1 % Inhibition (±SD)

Recorded results for 5 molecules are shown here.
{"Molecule": "CCn1cnc2c(-c3ccc(F)c(-c4ccc(S(=O)(=O)CC)cc4OC)c3)cnnc21", "Meas Value": "100.45 (0.02) %"}
{"Molecule": "COc1cccc(-c2nccc3[nH]c(=O)c(-c4noc(C)n4)cc23)c1", "Meas Value": "98.17 (0.19) %"}
{"Molecule": "C#CCOc1ccc(/C=C/C(=O)Nc2ccccc2C(=O)O)cc1OC", "Meas Value": "54.94 (2.47) %"}
{"Molecule": "COc1cccc(C(=O)COc2ccc(CC3SC(=O)NC3=O)cc2)c1 (stereo not drawn)", "Meas Value": "74.95 (4.00) %"}
{"Molecule": "COc1ccc(S(=O)(=O)Nc2cc(-c3c(O)ccc4ccccc34)c(O)c3ccccc23)cc1", "Meas Value": "72.99 (5.06) %"}

Now look at this entry.
# get_value(readout='ENT1 % Inhibition (±SD)', item= COc1cc(C(=O)c2c(C)oc3c(O)c(OC)ccc23)cc(OC)c1OC ) 97.87 (1.06) %
